- Assay method text: total protein half-life in vivo (active degradation + dilution); higher = more stable protein
- Experimental setup: E. coli NCM3722 delta-lon; growth: N-lim chemostat; doubling time 6 h
For each record, write down the corresponding total protein half-life in vivo.
Entry rule: numbers only, all in h.

get_value(item= MMLSKKNSETLENFSEKLEVEGRSLWQDARRRFMHNRAAVASLIVLVLIALFVILAPMLSQFAYDDTDWAMMSSAPDMESGHYFGTDSSGRDLLVRVAIGGRISLMVGVAAALVAVVVGTLYGSLSGYLGGKVDSVMMRLLEILNSFPFMFFVILLVTFFGQNILLIFVAIGMVSWLDMARIVRGQTLSLKRKEFIEAAQVGGVSTSGIVIRHIVPNVLGVVVVYASLLVPSMILFESFLSFLGLGTQEPLSSWGALLSDGANSMEVSPWLLLFPAGFLVVTLFCFNFIGDGLRDALDPKDR [P0AFH6] , readout=total protein half-life in vivo) returns 4.46

Input MKRMIALDGAQGEGGGQILRSALSLSMITGQPFTITSIRAGRAKPGLLRQHLTAVKAATEICGATVEGAELGSQRLLFRPGTVRGGDYRFAIGSAGSCTLVLQTVLPALWFADGPSRVEVSGGTDNPSAPPADFIRRVLEPLLAKIGIHQQTTLLRHGFYPAGGGVVATEVSPVASFNTLQLGERGNIVQMRGEVLLAGVPRHVAEREIATLAGSFSLHEQNIHNLPRDQGPGNTVSLEVESENITERFFVVGEKRVSAEVVAAQLVKEVKRYLASTAAVGEYLADQLVLPMALAGAGEFTVAHPSCHLLTNIAVVERFLPVRFSLIETDGVTRVSIE . Output total protein half-life in vivo: 4.46

# sequence MTDNTYQPAKVWTWDKSAGGAFANINRPVSGPTHEKTLPVGKHPLQLYSLGTPNGQKVTIMLEELLALGVTGAEYDAWLIRIGDGDQFSSGFVEVNPNSKIPALRDHTHNPPIRVFESGSILLYLAEKFGYFLPQDLAKRTETMNWLFWLQGAAPFLGGGFGHFYHYAPVKIEYAINRFTMEAKRLLDVLDKQLAQHKFVAGDEYTIADMAIWPWFGNVVLGGVYDAAEFLDAGSYKHVQRWAKEVGERPAVKRGRIVNRTNGPLNEQLHERHDASDFETNTEDKRQG ; its total protein half-life in vivo = 5.02

Entry MSKAGASLATCYGPVSADVIAKAENIRLLILDVDGVLSDGLIYMGNNGEELKAFNVRDGYGIRCALTSDIEVAIITGRKAKLVEDRCATLGITHLYQGQSNKLIAFSDLLEKLAIAPENVAYVGDDLIDWPVMEKVGLSVAVADAHPLLIPRADYVTRIAGGRGAVREVCDLLLLAQGKLDEAKGQSI [P0ABZ4] ; total protein half-life in vivo = 4.98

// total protein half-life in vivo value for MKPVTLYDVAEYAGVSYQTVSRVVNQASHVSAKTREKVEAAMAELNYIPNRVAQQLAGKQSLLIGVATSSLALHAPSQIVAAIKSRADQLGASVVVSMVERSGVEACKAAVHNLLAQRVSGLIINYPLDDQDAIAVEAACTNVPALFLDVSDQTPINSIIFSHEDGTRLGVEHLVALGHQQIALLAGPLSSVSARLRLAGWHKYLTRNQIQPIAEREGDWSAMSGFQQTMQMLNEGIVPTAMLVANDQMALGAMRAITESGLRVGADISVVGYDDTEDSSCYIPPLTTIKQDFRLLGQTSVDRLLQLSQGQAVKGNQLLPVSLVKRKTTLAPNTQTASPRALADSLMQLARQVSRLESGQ : 4.85

The sequence identified as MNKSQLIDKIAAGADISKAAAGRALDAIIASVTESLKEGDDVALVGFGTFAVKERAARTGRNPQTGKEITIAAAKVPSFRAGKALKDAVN [P0ACF4] registered its total protein half-life in vivo at 6.96

Measured total protein half-life in vivo, MKIFLENLYHSDCYFLPIRDNQQVLVGVELITHFSSEDGTVRIPTSRVIAQLTEEQHWQLFSEQLELLKSCQHFFIQHKLFAWLNLTPQVATLLLERDNYAGELLKYPFIELLINENYPHLNEGKDNRGLLSLSQVYPLVLGNLGAGNSTMKAVFDGLFTRVMLDKSFIQQQITHRSFEPFIRAIQAQISPCCNCIIAGGIDTAEILAQITPFDFHALQGCLWPAVPINQITTLVQR : 4.44

# sequence MKKLQIAVGIIRNENNEIFITRRAADAHMANKLEFPGGKIEMGETPEQAVVRELQEEVGITPQHFSLFEKLEYEFPDRHITLWFWLVERWEGEPWGKEGQPGEWMSLVGLNADDFPPANEPVIAKLKRL ; its total protein half-life in vivo = 5.1

Item: MIDTTLPLTDIHRHLDGNIRPQTILELGRQYNISLPAQSLETLIPHVQVIANEPDLVSFLTKLDWGVKVLASLDACRRVAFENIEDAARHGLHYVELRFSPGYMAMAHQLPVAGVVEAVIDGVREGCRTFGVQAKLIGIMSRTFGEAACQQELEAFLAHRDQITALDLAGDELGFPGSLFLSHFNRARDAGWHITVHAGEAAGPESIWQAIRELGAERIGHGVKAIEDRALMDFLAEQQIGIESCLTSNIQTSTVAELAAHPLKTFLEHGIRASINTDDPGVQGVDIIHEYTVAAPAAGLSREQIRQAQINGLEMAFLSAEEKRALREKVAAK | total protein half-life in vivo: 5.25

Briefly, total protein half-life in vivo measured for MNKFEDIRGVAFDLDGTLVDSAPGLAAAVDMALYALELPVAGEERVITWIGNGADVLMERALTWARQERATQRKTMGKPPVDDDIPAEEQVRILRKLFDRYYGEVAEEGTFLFPHVADTLGALQAKGLPLGLVTNKPTPFVAPLLEALDIAKYFSVVIGGDDVQNKKPHPDPLLLVAERMGIAPQQMLFVGDSRNDIQAAKAAGCPSVGLTYGYNYGEAIDLSQPDVIYQSINDLLPALGLPHSENQESKND : 4.24

Reported total protein half-life in vivo for MTLRKILALTCLLLPMMASAHQFETGQRVPPIGITDRGELVLDKDQFSYKTWNSAQLVGKVRVLQHIAGRTSAKEKNATLIEAIKSAKLPHDRYQTTTIVNTDDAIPGSGMFVRSSLESNKKLYPWSQFIVDSNGVALGAWQLDEESSAVVVLDKDGRVQWAKDGALTPEEVQQVMDLLQKLLK was 5.62
